A short record of IC50 observed with UniProt Q14191 follows.
Sequence (Q14191 517-1238): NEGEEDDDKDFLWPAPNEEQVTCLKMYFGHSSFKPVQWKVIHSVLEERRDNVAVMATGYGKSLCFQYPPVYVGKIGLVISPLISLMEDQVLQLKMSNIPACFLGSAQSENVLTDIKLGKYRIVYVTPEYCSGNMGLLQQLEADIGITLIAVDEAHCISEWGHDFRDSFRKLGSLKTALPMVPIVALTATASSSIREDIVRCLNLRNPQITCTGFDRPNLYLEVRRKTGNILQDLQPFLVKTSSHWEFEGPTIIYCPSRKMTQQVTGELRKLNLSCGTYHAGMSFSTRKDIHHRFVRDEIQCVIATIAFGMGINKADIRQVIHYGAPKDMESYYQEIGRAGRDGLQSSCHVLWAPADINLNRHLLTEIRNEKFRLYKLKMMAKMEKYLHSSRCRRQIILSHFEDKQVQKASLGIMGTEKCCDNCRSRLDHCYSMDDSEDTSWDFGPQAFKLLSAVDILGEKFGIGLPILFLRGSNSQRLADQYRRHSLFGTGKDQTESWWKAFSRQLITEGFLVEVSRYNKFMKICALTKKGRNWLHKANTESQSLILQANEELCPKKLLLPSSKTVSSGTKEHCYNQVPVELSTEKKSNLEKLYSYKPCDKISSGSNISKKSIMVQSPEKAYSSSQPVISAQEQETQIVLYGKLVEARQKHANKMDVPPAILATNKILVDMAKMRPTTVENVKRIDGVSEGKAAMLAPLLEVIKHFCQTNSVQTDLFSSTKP
measured parameter: IC50

1. Cc1ncnc(C(=O)N2CCN(c3c4n(c5nc(C6=CCOCC6)nn5c3=O)[C@H](C(=O)Nc3ccc(C(F)(F)F)cc3Cl)C[C@@H]4C)CC2)c1O [Example 14B]; 2 µM
2. Cc1cc(C(F)(F)F)ccc1NC(=O)[C@@H]1C[C@@H](C)c2c(N3CCN(C(=O)c4ncccc4O)CC3)c(=O)n3nc(C4=CCOCC4)nc3n21 [Example 15D]; 61 µM
3. Cc1cc(C(F)(F)F)ccc1NC(=O)[C@H]1C[C@H](C)c2c(N3CCN(C(=O)c4ncccc4O)CC3)c(=O)n3nc(C4=CCOCC4)nc3n21 [Example 15C]; 0.1 µM
4. C[C@H]1C[C@@H](C(=O)Nc2ccc(C(F)(F)F)cc2Cl)n2c1c(N1CCN(C(=O)c3nccc(Cl)c3O)CC1)c(=O)n1nc(N3CCOCC3)nc21 [Example 1B]; 7 µM
5. Cc1ncnc(C(=O)N2CCN(c3c4n(c5nc(C6=CCOCC6)nn5c3=O)[C@H](C(=O)Nc3ccc(C(F)(F)F)cc3Cl)C[C@H]4C)C[C@H]2C)c1O [Example 18C]; > 10 µM
6. Cc1ncnc(C(=O)N2CCN(c3c4n(c5nc(C6=CCOCC6)nn5c3=O)[C@@H](C(=O)Nc3ccc(C(F)(F)F)cc3Cl)C[C@@H]4C)[C@H]3CC[C@@H]32)c1O [Example 21C]; 0.04 µM
7. Cc1cc(C(F)(F)F)ccc1NC(=O)[C@H]1CCc2c(N3CCN(C(=O)c4ncccc4O)CC3)c(=O)n3nc(C4=CCOCC4)nc3n21 [Example 20A]; 0.09 µM
8. Cc1cc(C(F)(F)F)ccc1NC(=O)[C@@H]1CCc2c(N3CCN(C(=O)c4nccc(Cl)c4O)CC3)c(=O)n3nc(C4=CCOCC4)nc3n21 [Example 19B]; 44 µM
9. C[C@@H]1C[C@H](C(=O)Nc2ccc(C(F)(F)F)cc2Cl)n2c1c(N1CCN(C(=O)c3ccnc(F)c3O)CC1)c(=O)n1nc(C3=CCOCC3)nc21 [Example 12]; 0.03 µM
10. Cc1cc(C(F)(F)F)ccc1NC(=O)[C@@H]1CCc2c(N3CCN(C(=O)c4ncccc4O)CC3)c(=O)n3nc(C4=CCOCC4)nc3n21 [Example 20B]; > 10 µM
11. Cc1ncnc(C(=O)N2CCN(c3c4n(c5nc(C6=CCOCC6)nn5c3=O)[C@@H](C(=O)Nc3ccc(C(F)(F)F)cc3Cl)C[C@H]4C)[C@H]3CC[C@@H]32)c1O [Example 21A]; 0.03 µM
12. Cc1cc(F)c(O)c(C(=O)N2CCN(c3c4n(c5nc(N6CCOCC6)nn5c3=O)[C@H](C(=O)Nc3ccc(C(F)(F)F)cc3Cl)C[C@@H]4C)CC2)n1 [Example 3B]; 6 µM
13. Cc1ncnc(C(=O)N2CCN(c3c4n(c5nc(C6=CCOCC6)nn5c3=O)[C@@H](C(=O)Nc3ccc(C(F)(F)F)cc3Cl)C[C@H]4C)CC2)c1O [Example 14A]; 0.04 µM
14. O=C(Nc1ccc(C(F)(F)F)cc1)[C@H]1CCc2c(N3CCN(C(=O)c4ncccc4O)CC3)c(=O)n3nc(C4=CCOCC4)nc3n21 [Example 23A]; 0.05 µM
15. O=C(Nc1ccc(C(F)(F)F)cc1)[C@@H]1CCc2c(N3CCN(C(=O)c4ncccc4O)CC3)c(=O)n3nc(C4=CCOCC4)nc3n21 [Example 23B]; 69 µM
